- ASSAY SYSTEM: human V1a receptor (Homo sapiens)
- Sequence (P37288 whole entry): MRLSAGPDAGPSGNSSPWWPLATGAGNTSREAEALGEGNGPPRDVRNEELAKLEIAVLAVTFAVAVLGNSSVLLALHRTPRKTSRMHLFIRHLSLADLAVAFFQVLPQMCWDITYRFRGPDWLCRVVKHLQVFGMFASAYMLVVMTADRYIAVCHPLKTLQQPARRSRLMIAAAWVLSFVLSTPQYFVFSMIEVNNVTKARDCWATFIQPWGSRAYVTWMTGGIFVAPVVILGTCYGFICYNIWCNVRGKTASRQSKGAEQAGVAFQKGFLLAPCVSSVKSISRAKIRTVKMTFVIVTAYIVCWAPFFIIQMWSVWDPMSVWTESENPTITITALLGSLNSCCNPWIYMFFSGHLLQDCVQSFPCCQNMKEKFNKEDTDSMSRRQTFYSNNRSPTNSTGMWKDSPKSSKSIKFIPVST
- RUN DESCRIPTION: Cellular in vitro assay for determining vasopressin receptor activity, V1a receptor cell line (CHO, aequorin luminescence)
- MEASUREMENT PARAMETERS: CHO cell line transfected with human V1a receptor; [Arg]-vasopressin at EC50 concentration; read-out: IC50 hV1a
- Protocol: B-1. Cellular In Vitro Assay for Determining Vasopressin Receptor Activity The identification of agonists and antagonists of the V1a and V2 vasopressin receptors from humans, rats and dogs as well as the quantification of the activity of the compounds of the invention is carried out using recombinant cell lines. […] The bioluminescence of the cell lines is detected using a suitable luminometer [Milligan G, Marshall F, Rees S, Trends in Pharmacological Sciences 17, 235-237 (1996)]. […]
Can you tell me pIC50 for the items I'm about to list?
The scale used: pIC50 is minus the common logarithm of the concentration in molar units.

Give reported pIC50 value for Cc1cc(C(=O)Nc2ncccc2-n2cnc(Cn3nc(-c4ccc(Cl)cc4)n(C[C@H](O)C(F)(F)F)c3=O)n2)no1 [Example 161]
7.58

Item O=C(NC1(C(F)(F)F)CC1)c1cccc(Cl)c1-n1cnc(Cn2nc(-c3ccc(Cl)cc3)n(C[C@@H](O)C(F)(F)F)c2=O)n1 [Example 403] : provide pIC50
7.13

In one line, give reported pIC50 of the entry O=C(Nc1ccncc1-n1cnc(Cn2nc(-c3ccc(Cl)cc3)n(C[C@H](O)C(F)(F)F)c2=O)n1)C1(C(F)(F)F)CC1 [Example 32] .
8.30

Supply recorded pIC50 for NC(=O)[C@@H]1CC(F)(F)CN1C(=O)c1cccc(Cl)c1-n1cnc(Cn2nc(-c3ccc(Cl)cc3)n(C[C@H](O)C(F)(F)F)c2=O)n1 [Example 372] here.
7.28

Dear colleague, please send me the reported pIC50 for NC(=O)C1(C(=O)Nc2ncccc2-n2cnc(Cn3nc(-c4ccc(Cl)cc4)n(C[C@H](O)C(F)(F)F)c3=O)n2)CC1 [Example 125] when you can.
7.53

Identify measured pIC50 corresponding to CC1(C)CN(C(=O)c2ncccc2-n2cnc(Cn3nc(-c4ccc(Cl)cc4)n(C[C@H](O)C(F)(F)F)c3=O)n2)CCO1 [Example 438]
7.07

Answer with the recorded pIC50 for the molecule listed here: O=C(NC1CC1F)c1cccc(Cl)c1-n1cnc(Cn2nc(-c3ccc(Cl)cc3)n(C[C@@H](O)C(F)(F)F)c2=O)n1 (mixture of isomers) [Example 406]
7.59

Tell me its pIC50 given CC1CCCCN1C(=O)c1ccccc1-n1cnc(Cn2nc(-c3ccc(Cl)cc3)n(C[C@H](O)C(F)(F)F)c2=O)n1 (stereo partly shown) [Example 352] as the entry.
9.08

Answer with the recorded pIC50 of O=c1n(Cc2ncn(-c3cnccc3N3CCS(=O)(=O)CC3)n2)nc(-c2ccc(Cl)cc2)n1C[C@H](O)C(F)(F)F [Example 6] only.
7.15

State its pIC50: CC(C)(N)CNC(=O)c1cc(F)ccc1-n1cnc(Cn2nc(-c3ccc(Cl)cc3)n(C[C@H](O)C(F)(F)F)c2=O)n1 [Example 424]
7.94

Respond only with pIC50 recorded for O=C(c1ccccc1-n1cnc(Cn2nc(-c3ccc(Cl)cc3)n(C[C@H](O)C(F)(F)F)c2=O)n1)N1CCC(F)(F)CC1 [Example 175]
7.99

Output measured pIC50 for this item: O=C(CC1CC1)Nc1ncccc1-n1cnc(Cn2nc(-c3ccc(Cl)cc3)n(C[C@H](O)C(F)(F)F)c2=O)n1 [Example 87]
8.32

Note down pIC50 recorded for O=c1n(Cc2ncn(-c3cnccc3NCC3(O)CC3)n2)nc(-c2ccc(Cl)cc2)n1C[C@H](O)C(F)(F)F [Example 4]
6.94

Please indicate pIC50 recorded for CC1CCCC(NC(=O)c2ccccc2-n2cnc(Cn3nc(-c4ccc(Cl)cc4)n(C[C@H](O)C(F)(F)F)c3=O)n2)C1 (mixture of isomers) [Example 224]
7.90

Kindly indicate its recorded pIC50. Item: O=c1n(Cc2ncn(-c3cnccc3NCC3CS(=O)(=O)C3)n2)nc(-c2ccc(Cl)cc2)n1C[C@H](O)C(F)(F)F [Example 18]
7.63

Input C=CCC(=O)Nc1ncccc1-n1cnc(Cn2nc(-c3ccc(Cl)cc3)n(C[C@H](O)C(F)(F)F)c2=O)n1 [Example 152] , output reported pIC50.
7.19

Give recorded pIC50. CCN(CC)C(=O)c1ccccc1-n1cnc(Cn2nc(-c3ccc(Cl)cc3)n(C[C@H](O)C(F)(F)F)c2=O)n1 [Example 314]
8.67

Specify reported pIC50 for the molecule shown: O=C(Nc1ccncc1-n1cnc(Cn2nc(-c3ccc(Cl)cc3)n(C[C@H](O)C(F)(F)F)c2=O)n1)OCC(F)(F)F [Example 26]
7.24

Provide pIC50 value for the following molecule: O=C1CN(C(=O)c2nc(Cn3nc(-c4ccc(Cl)cc4)n(C[C@H](O)C(F)(F)F)c3=O)nn2-c2ncccc2C(=O)NCCC(F)(F)F)CCN1 [Example 512]
5.44

# return recorded pIC50 for entry O=C(c1cccc(C(F)(F)F)c1-n1cnc(Cn2nc(-c3ccc(Cl)cc3)n(C[C@H](O)C(F)(F)F)c2=O)n1)N1CCS(=O)(=O)CC1 [Example 418]
6.20

Fill in reported pIC50 for this entry: O=C(Nc1ccncc1-n1cnc(Cn2nc(-c3ccc(Cl)cc3)n(C[C@H](O)C(F)(F)F)c2=O)n1)C1CC(F)(F)C1 [Example 31]
7.74

Answer with the recorded pIC50 for the molecule listed here: O=C(N[C@H]1C[C@H]1F)c1cccc(Cl)c1-n1cnc(Cn2nc(-c3ccc(Cl)cc3)n(C[C@H](O)C(F)(F)F)c2=O)n1 (racemic) [Example 389]
8.58

Identify measured pIC50 associated with Cc1cccnc1NC(=O)c1ccccc1-n1cnc(Cn2nc(-c3ccc(Cl)cc3)n(C[C@H](O)C(F)(F)F)c2=O)n1 [Example 296]
8.40

Consider the molecule O=C(Nc1cccnc1-n1cnc(Cn2nc(-c3ccc(Cl)cc3)n(CC(O)C(F)(F)F)c2=O)n1)C1CC1F (mixture of isomers) [Example 59] . State its measured pIC50.
8.29

Supply recorded pIC50 for O=C(N[C@@H]1C[C@@H]1F)c1cccc(C(F)(F)F)c1-n1cnc(Cn2nc(-c3ccc(Cl)cc3)n(C[C@H](O)C(F)(F)F)c2=O)n1 (racemic) [Example 413] here.
7.46
